// data source = paper PMC9077138

molecular target: HSA (Homo sapiens); construct: purchased HiMedia (Mumbai, India); assay: Three-dimensional fluorescence spectra of HSA; format: binding; settings: HSA 10 μM + compound 10 μM, pH 7.4, 298 K
Property label: Fluorescence peaks Intensity (F)
Please reply with the value in numeric form only.

Some solved entries appear below for comparison.
CCNC1=N[N+]2=C(C)c3[c](c4ccc(OC)cc4oc3=O)[Ru-4]2([C]#[O+])([P+](c2ccccc2)(c2ccccc2)c2ccccc2)([P+](c2ccccc2)(c2ccccc2)c2ccccc2)[S]1 [Complex 3, [Ru(7MAC-etsc)(CO)(PPh3)2]]; 266.21
COc1ccc2[c]3c(c(=O)oc2c1)C(C)=[N+]1N=C(N)[S][Ru-4]31([C]#[O+])([P+](c1ccccc1)(c1ccccc1)c1ccccc1)[P+](c1ccccc1)(c1ccccc1)c1ccccc1 [Complex 1, [Ru(7MAC-tsc)(CO)(PPh3)2]]; 268.14
COc1ccc2[c]3c(c(=O)oc2c1)C(C)=[N+]1N=C(Nc2ccccc2)[S][Ru-4]31([C]#[O+])([P+](c1ccccc1)(c1ccccc1)c1ccccc1)[P+](c1ccccc1)(c1ccccc1)c1ccccc1 [Complex 4, [Ru(7MAC-ptsc)(CO)(PPh3)2]]; 276.12

Now let's try a different one.
So what does the record say about Fluorescence peaks Intensity (F) for CNC1=N[N+]2=C(C)c3[c](c4ccc(OC)cc4oc3=O)[Ru-4]2([C]#[O+])([P+](c2ccccc2)(c2ccccc2)c2ccccc2)([P+](c2ccccc2)(c2ccccc2)c2ccccc2)[S]1 [Complex 2, [Ru(7MAC-mtsc)(CO)(PPh3)2]] ?
269.53

----------
Reported Stern–Volmer KSV values follow for various compounds
biological target: BSA (Bos taurus, UniProt P02769); construct: purchased HiMedia (Mumbai, India); test: BSA tryptophan fluorescence quenching; format: binding, bovine; conditions: BSA
Sequence (P02769 25-607): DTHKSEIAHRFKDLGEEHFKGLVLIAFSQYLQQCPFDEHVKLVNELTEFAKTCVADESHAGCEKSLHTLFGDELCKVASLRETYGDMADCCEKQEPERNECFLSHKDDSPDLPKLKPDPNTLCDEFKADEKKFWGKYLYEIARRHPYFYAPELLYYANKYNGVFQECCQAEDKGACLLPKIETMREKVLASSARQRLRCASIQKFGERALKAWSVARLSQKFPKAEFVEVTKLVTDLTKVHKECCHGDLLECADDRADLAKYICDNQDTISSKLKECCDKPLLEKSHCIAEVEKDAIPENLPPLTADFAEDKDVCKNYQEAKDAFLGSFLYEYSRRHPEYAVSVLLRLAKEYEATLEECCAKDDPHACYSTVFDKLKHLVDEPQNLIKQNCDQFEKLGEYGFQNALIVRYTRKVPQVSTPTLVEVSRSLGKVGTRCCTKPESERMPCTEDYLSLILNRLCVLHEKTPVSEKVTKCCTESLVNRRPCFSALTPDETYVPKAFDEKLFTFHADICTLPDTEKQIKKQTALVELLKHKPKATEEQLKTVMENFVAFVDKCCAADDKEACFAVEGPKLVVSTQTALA

CNC1=N[N+]2=C(C)c3[c](c4ccc(OC)cc4oc3=O)[Ru-4]2([C]#[O+])([P+](c2ccccc2)(c2ccccc2)c2ccccc2)([P+](c2ccccc2)(c2ccccc2)c2ccccc2)[S]1 [Complex 2, [Ru(7MAC-mtsc)(CO)(PPh3)2]]; 2.382 ± 0.011 × 10^4 M^−1
CCNC1=N[N+]2=C(C)c3[c](c4ccc(OC)cc4oc3=O)[Ru-4]2([C]#[O+])([P+](c2ccccc2)(c2ccccc2)c2ccccc2)([P+](c2ccccc2)(c2ccccc2)c2ccccc2)[S]1 [Complex 3, [Ru(7MAC-etsc)(CO)(PPh3)2]]; 1.756 ± 0.080 × 10^4 M^−1
COc1ccc2[c]3c(c(=O)oc2c1)C(C)=[N+]1N=C(Nc2ccccc2)[S][Ru-4]31([C]#[O+])([P+](c1ccccc1)(c1ccccc1)c1ccccc1)[P+](c1ccccc1)(c1ccccc1)c1ccccc1 [Complex 4, [Ru(7MAC-ptsc)(CO)(PPh3)2]]; 1.454 ± 0.030 × 10^4 M^−1

For the compound COc1ccc2[c]3c(c(=O)oc2c1)C(C)=[N+]1N=C(N)[S][Ru-4]31([C]#[O+])([P+](c1ccccc1)(c1ccccc1)c1ccccc1)[P+](c1ccccc1)(c1ccccc1)c1ccccc1 [Complex 1, [Ru(7MAC-tsc)(CO)(PPh3)2]] , what Stern–Volmer KSV is on record?
1.674 ± 0.040 × 10^4 M^−1

----------
system: P. aeruginosa; assay: In vitro antibacterial assay (zone of inhibition, MIC); format: cell-based, Pseudomonas aeruginosa; details: P. aeruginosa, 50 µg/ml
# Zone of inhibition per entry
I'd appreciate it if you included the unit after the number.

Record excerpt, results attached:
COc1ccc2[c]3c(c(=O)oc2c1)C(C)=[N+]1N=C(Nc2ccccc2)[S][Ru-4]31([C]#[O+])([P+](c1ccccc1)(c1ccccc1)c1ccccc1)[P+](c1ccccc1)(c1ccccc1)c1ccccc1 [Complex 4, [Ru(7MAC-ptsc)(CO)(PPh3)2]]; 12.33±0.53 mm
CCNC1=N[N+]2=C(C)c3[c](c4ccc(OC)cc4oc3=O)[Ru-4]2([C]#[O+])([P+](c2ccccc2)(c2ccccc2)c2ccccc2)([P+](c2ccccc2)(c2ccccc2)c2ccccc2)[S]1 [Complex 3, [Ru(7MAC-etsc)(CO)(PPh3)2]]; 13.23±0.52 mm

Which Zone of inhibition is reported with P. aeruginosa for this entry: CNC1=N[N+]2=C(C)c3[c](c4ccc(OC)cc4oc3=O)[Ru-4]2([C]#[O+])([P+](c2ccccc2)(c2ccccc2)c2ccccc2)([P+](c2ccccc2)(c2ccccc2)c2ccccc2)[S]1 [Complex 2, [Ru(7MAC-mtsc)(CO)(PPh3)2]] ?
12.12±0.13 mm

Report Zone of inhibition for COc1ccc2[c]3c(c(=O)oc2c1)C(C)=[N+]1N=C(N)[S][Ru-4]31([C]#[O+])([P+](c1ccccc1)(c1ccccc1)c1ccccc1)[P+](c1ccccc1)(c1ccccc1)c1ccccc1 [Complex 1, [Ru(7MAC-tsc)(CO)(PPh3)2]] tested on P. aeruginosa.
13.23±0.32 mm

Give recorded Zone of inhibition with P. aeruginosa for the following compound: [C-]#[O+].[Cl][RuH].c1ccc(P(c2ccccc2)c2ccccc2)cc1.c1ccc(P(c2ccccc2)c2ccccc2)cc1.c1ccc(P(c2ccccc2)c2ccccc2)cc1 [[RuHClCO(PPh3)3], reference compound]
15.78±0.44 mm

----------
test system: S. pneumonie; experiment: In vitro antibacterial assay (zone of inhibition, MIC); type: cell-based, Streptococcus pneumonie; conditions: S. pneumonie
Property label: Minimum inhibitory concentration (MIC); head: IC50 VALUES (µM)
Please give a number only; it is taken to be in µM.

These recorded examples may help you get a feel for the data.
CNC1=N[N+]2=C(C)c3[c](c4ccc(OC)cc4oc3=O)[Ru-4]2([C]#[O+])([P+](c2ccccc2)(c2ccccc2)c2ccccc2)([P+](c2ccccc2)(c2ccccc2)c2ccccc2)[S]1 [Complex 2, [Ru(7MAC-mtsc)(CO)(PPh3)2]]; 16.43
COc1ccc2[c]3c(c(=O)oc2c1)C(C)=[N+]1N=C(N)[S][Ru-4]31([C]#[O+])([P+](c1ccccc1)(c1ccccc1)c1ccccc1)[P+](c1ccccc1)(c1ccccc1)c1ccccc1 [Complex 1, [Ru(7MAC-tsc)(CO)(PPh3)2]]; 15.86

Item under review: CCNC1=N[N+]2=C(C)c3[c](c4ccc(OC)cc4oc3=O)[Ru-4]2([C]#[O+])([P+](c2ccccc2)(c2ccccc2)c2ccccc2)([P+](c2ccccc2)(c2ccccc2)c2ccccc2)[S]1 [Complex 3, [Ru(7MAC-etsc)(CO)(PPh3)2]] . Reported Minimum inhibitory concentration (MIC); head: IC50 VALUES?
14.85

Any idea what Minimum inhibitory concentration (MIC); head: IC50 VALUES was measured for [C-]#[O+].[Cl][RuH].c1ccc(P(c2ccccc2)c2ccccc2)cc1.c1ccc(P(c2ccccc2)c2ccccc2)cc1.c1ccc(P(c2ccccc2)c2ccccc2)cc1 [[RuHClCO(PPh3)3], reference compound] ?
33.05

Given the entry COc1ccc2[c]3c(c(=O)oc2c1)C(C)=[N+]1N=C(Nc2ccccc2)[S][Ru-4]31([C]#[O+])([P+](c1ccccc1)(c1ccccc1)c1ccccc1)[P+](c1ccccc1)(c1ccccc1)c1ccccc1 [Complex 4, [Ru(7MAC-ptsc)(CO)(PPh3)2]] , report its measured Minimum inhibitory concentration (MIC); head: IC50 VALUES.
15.89

----------
Rayleigh scattering peaks Intensity (F) reference
molecular target: HSA (Homo sapiens, UniProt P02768); construct: purchased HiMedia (Mumbai, India); assay: Three-dimensional fluorescence spectra of HSA; format: binding; details: HSA 10 μM + compound 10 μM, pH 7.4, 298 K
Sequence (P02768 25-609): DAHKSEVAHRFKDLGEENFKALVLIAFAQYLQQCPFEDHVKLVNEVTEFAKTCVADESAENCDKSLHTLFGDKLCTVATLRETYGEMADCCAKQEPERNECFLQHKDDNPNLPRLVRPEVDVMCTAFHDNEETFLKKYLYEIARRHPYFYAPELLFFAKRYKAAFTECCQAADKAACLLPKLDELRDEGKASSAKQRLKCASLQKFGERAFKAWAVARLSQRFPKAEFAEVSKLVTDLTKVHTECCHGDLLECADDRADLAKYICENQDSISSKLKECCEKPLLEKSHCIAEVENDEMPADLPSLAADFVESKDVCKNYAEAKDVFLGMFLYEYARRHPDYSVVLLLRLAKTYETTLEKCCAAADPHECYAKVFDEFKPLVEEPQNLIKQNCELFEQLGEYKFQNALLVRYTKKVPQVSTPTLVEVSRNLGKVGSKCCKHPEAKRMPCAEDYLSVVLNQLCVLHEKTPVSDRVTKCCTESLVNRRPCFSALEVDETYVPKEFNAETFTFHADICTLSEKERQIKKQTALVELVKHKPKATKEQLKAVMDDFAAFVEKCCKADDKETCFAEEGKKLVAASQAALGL
Please state the value as a number alone, without comment.

CNC1=N[N+]2=C(C)c3[c](c4ccc(OC)cc4oc3=O)[Ru-4]2([C]#[O+])([P+](c2ccccc2)(c2ccccc2)c2ccccc2)([P+](c2ccccc2)(c2ccccc2)c2ccccc2)[S]1 [Complex 2, [Ru(7MAC-mtsc)(CO)(PPh3)2]]; 790.59

Return reported Rayleigh scattering peaks Intensity (F); argument: CCNC1=N[N+]2=C(C)c3[c](c4ccc(OC)cc4oc3=O)[Ru-4]2([C]#[O+])([P+](c2ccccc2)(c2ccccc2)c2ccccc2)([P+](c2ccccc2)(c2ccccc2)c2ccccc2)[S]1 [Complex 3, [Ru(7MAC-etsc)(CO)(PPh3)2]]
612.58

Need Rayleigh scattering peaks Intensity (F) of COc1ccc2[c]3c(c(=O)oc2c1)C(C)=[N+]1N=C(N)[S][Ru-4]31([C]#[O+])([P+](c1ccccc1)(c1ccccc1)c1ccccc1)[P+](c1ccccc1)(c1ccccc1)c1ccccc1 [Complex 1, [Ru(7MAC-tsc)(CO)(PPh3)2]] , thanks.
652.04

What does the data say about its Rayleigh scattering peaks Intensity (F)? Entry: COc1ccc2[c]3c(c(=O)oc2c1)C(C)=[N+]1N=C(Nc2ccccc2)[S][Ru-4]31([C]#[O+])([P+](c1ccccc1)(c1ccccc1)c1ccccc1)[P+](c1ccccc1)(c1ccccc1)c1ccccc1 [Complex 4, [Ru(7MAC-ptsc)(CO)(PPh3)2]]
830.46
